Data provenance: ChEMBL document CHEMBL4177580

Measured Ki on 5-hydroxytryptamine receptor 1A (Rattus norvegicus, UniProt P19327) follows.
Respond with the bare value in nM.

Please review the entries below; each comes with its answer.
{"columns": ["compound", "Ki (nM)"],
 "data": [
  ["CCN(CC)C1CCc2cccc(O)c2C1 (stereo unspecified)", 0.8],
  ["O=C(NCCN1CCN(c2cccc(Cl)c2)CC1)c1ccccn1", 267]
]}

Any idea what Ki came out for `O=C(NCCCN1CCN(c2cccc(C(F)(F)F)c2)CC1)c1ccccn1` on 5-hydroxytryptamine receptor 1A (Rattus norvegicus, UniProt P19327)?
17.9

====

Biological target: 5-hydroxytryptamine receptor 1A (Rattus norvegicus)
Sequence (P19327 whole entry): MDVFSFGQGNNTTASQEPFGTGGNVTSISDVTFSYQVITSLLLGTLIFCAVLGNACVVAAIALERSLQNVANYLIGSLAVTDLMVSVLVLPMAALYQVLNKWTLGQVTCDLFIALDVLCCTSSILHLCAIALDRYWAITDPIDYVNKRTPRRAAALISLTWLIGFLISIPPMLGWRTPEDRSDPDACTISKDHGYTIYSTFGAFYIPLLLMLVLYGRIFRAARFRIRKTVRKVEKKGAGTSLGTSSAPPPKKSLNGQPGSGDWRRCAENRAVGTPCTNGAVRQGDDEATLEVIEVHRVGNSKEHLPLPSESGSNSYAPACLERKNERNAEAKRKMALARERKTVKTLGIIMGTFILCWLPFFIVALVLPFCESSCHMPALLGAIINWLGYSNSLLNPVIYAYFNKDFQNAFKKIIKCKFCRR
propertyLabel: log10 Ki (log10 of the value in nM)
Response schema: value (number) is log10 of Ki in units of nM.

Please review the following examples before continuing.
{"columns": ["compound", "log10 Ki"],
 "data": [
  ["O=C(NCCN1CCN(c2cccc3ccccc23)CC1)c1ccccn1", 1.32],
  ["O=C(NCCCN1CCN(C(c2ccccc2)c2ccc(Cl)cc2)CC1)c1ccccn1 (configuration not stated)", 2.65],
  ["O=C(NCCCN1CCN(c2ncccn2)CC1)c1ccccn1", 2.70],
  ["COc1ccccc1N1CCN(CCCNC(=O)c2ccccn2)CC1", 1.60],
  ["O=C(NCCCN1CCN(c2ccc(Cl)c(Cl)c2)CC1)c1ccccn1", 2.26],
  ["O=C(NCCCN1CCN(c2ccccc2Cl)CC1)c1ccccn1", 1.85],
  ["O=C(NCCN1CCN(c2ccccc2F)CC1)c1ccccn1", 2.20],
  ["O=C(NCCN1CCN(c2ncccn2)CC1)c1ccccn1", -1.34],
  ["O=C(NCCN1CCN(c2ccccc2)CC1)c1ccccn1", 2.21],
  ["COc1ccc(N2CCN(CCNC(=O)c3ccccn3)CC2)cc1", 2.14]
]}

Can you share its log10 Ki? I mean this compound: `O=C(NCCCN1CCN(c2cccc(Cl)c2)CC1)c1ccccn1`
1.77

Requested read-out: log10 Ki. Entry: `O=C(NCCCN1CCN(c2ccc(Cl)cc2)CC1)c1ccccn1`
1.83
